Target: T1, Recombinant human NRP-1 (neuropilin-1 co-receptor) (human, UniProt O14786 22-856)
T1 construct: neuropilin-1, human, recombinant; It is probably a soluble extracellular construct (surmise); source: bought: BioLegend
T1 sequence (looked up): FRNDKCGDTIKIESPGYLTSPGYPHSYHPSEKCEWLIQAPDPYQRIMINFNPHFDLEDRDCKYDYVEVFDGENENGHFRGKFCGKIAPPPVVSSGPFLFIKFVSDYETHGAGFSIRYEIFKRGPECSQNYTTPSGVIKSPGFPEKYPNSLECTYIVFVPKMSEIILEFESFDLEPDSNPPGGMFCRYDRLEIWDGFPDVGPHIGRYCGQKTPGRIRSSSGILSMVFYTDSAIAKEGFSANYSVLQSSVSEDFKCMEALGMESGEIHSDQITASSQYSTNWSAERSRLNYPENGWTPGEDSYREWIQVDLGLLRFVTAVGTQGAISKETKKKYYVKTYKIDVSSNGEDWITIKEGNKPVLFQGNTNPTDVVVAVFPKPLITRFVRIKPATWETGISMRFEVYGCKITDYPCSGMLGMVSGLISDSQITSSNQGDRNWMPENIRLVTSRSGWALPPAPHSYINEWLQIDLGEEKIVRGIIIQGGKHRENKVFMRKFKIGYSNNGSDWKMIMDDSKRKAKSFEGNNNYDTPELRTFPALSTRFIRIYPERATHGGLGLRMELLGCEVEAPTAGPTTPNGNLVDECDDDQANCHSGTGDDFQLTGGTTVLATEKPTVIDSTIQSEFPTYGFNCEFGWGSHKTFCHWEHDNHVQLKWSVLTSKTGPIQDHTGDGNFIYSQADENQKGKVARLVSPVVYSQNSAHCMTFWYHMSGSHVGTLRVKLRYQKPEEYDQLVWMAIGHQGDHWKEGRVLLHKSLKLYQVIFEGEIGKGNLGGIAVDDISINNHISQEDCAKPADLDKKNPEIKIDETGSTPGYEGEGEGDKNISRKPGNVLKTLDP
Experiment: ELISA; competitive; recombinant human NRP-1 coated on a 96-well plate (200 ng/well, overnight, 4 °C), blocked with 0.5% BSA in PBS; 50 µL compound in PBS (100, 50, 25, 12.5, 6.75 µM) plus 50 µL (400 ng/mL) human (bt)-VEGF-A165 in PBS with 4 µg/mL heparin; 2 h at room temperature; streptavidin-HRP, chemiluminescence; IC50 by nonlinear regression, mean ± SD of three experiments
Settings: both partners purified
Primed or numbered codes have the meaning given here. Where no end group is shown, it is not given here. Side-chain parts run from the residue outwards. [ ]: non-standard residue; d: D form. The star is where a group is joined. DOTA″ = DOTA chelator, carrying Sc, O=C([O-])CN1CCN(CC(=O)[O-])CCN(CC(=O)*)CCN(CC(=O)[O-])CC1.[Sc+3]; DOTA′ = DOTA-Sc chelate, O=C([O-])CN1CCN(CC(=O)[O-])CCN(CC(=O)*)CCN(CC(=O)[O-])CC1.[Sc+3]; hArg = N=C(N)NCCCC[C@H](N)C(=O)O; Dab = NCC[C@H](N)C(=O)O; Ahx = NCCCCCC(=O)O
READOUT TYPE: IC50 (µM)
I only need the number, in µM, no unit after it.

Please review the entries below; each comes with its answer.
{"columns": ["BINDER", "UNIT ABBREV", "IC50"],
 "data": [
  ["{DOTA″-Ahx}-ATWLPPR (also: Sc chelated by DOTA, A7R peptide with linker and chelator on the N-terminus; also called Sc-1; source: synthetic peptide conjugate (SPPS), complexed with ScCl3) [Sc-DOTA-Ahx-A7R]", "µM", 22.5],
  ["K(hArg)[Dab]PR [branched peptidomimetic Lys(hArg)-Dab-Pro-Arg (K4R)]", "µM", 4.83],
  ["H-K(DOTA′)ATWLPPR (also: DOTA chelating Sc, Lys(DOTA)-Ala-Thr-Trp-Leu-Pro-Pro-Arg; the Lys is a linker before A7R; also called Sc-1bis; source: bought: CASLO ApS (conjugate 1bis), complexed with ScCl3) [Lys(DOTA-Sc)-A7R]", "µM", 18.1],
  ["K(hArg)[Dab]([Ahx-DOTA″])PR (also: Sc chelated by DOTA) [Lys(hArg)-Dab(Ahx-DOTA-Sc)-Pro-Arg]", "µM", 17.9]
]}

Now look at this entry.
Inquiry: Please report the recorded IC50 for ATWLPPR (found by a mutated phage library screening; free C-terminal carboxyl group; also called ^LA7R; source: synthetic peptide (SPPS, Fmoc chemistry)) [Ala-Thr-Trp-Leu-Pro-Pro-Arg (A7R) heptapeptide] .
Reply text: 17.5
